Recorded values, source ChEMBL document CHEMBL1201862.

tested on: OVCAR-8; assay: NCI tumour cell line growth inhibition, 48 h
Calls of active or inactive are those of the source. No stated cut-off is given here; in the data, active = GI50 up to about 1.1 µM and inactive = higher.
Assay endpoint: GI50

Compound | Assay endpoint | Observed
NCC(O)CNCC/C=C\C/C=C\C/C=C\C/C=C\C/C=C\C/C=C\CCCCC/C=C\CCNCC(O)CN (stereo unspecified) | GI50 | 1.78 µM (inactive)

GI50 reported for this compound CN(C)c1ccc(/C=N/NC(=S)Nc2ccccc2)cc1 : > 100 µM (inactive)

GI50 reported for this compound O=C1Cc2ccccc2CCc2ccccc21 : > 100 µM (inactive)

GI50 reported for this compound C(=N\Cc1ccccc1)/c1ccccc1-c1ccccc1/C=N/Cc1ccccc1 : > 10 µM (inactive)

###

system: SK-MEL-5; assay: NCI tumour cell line growth inhibition, 48 h
Calls of active or inactive are those of the source. Rule as the data show it: active = GI50 up to about 1.1 µM and inactive = higher. Numbered stars: 1 amine (or outer) side, 2 acyl side, 3 side chain; on linkers, the order of the positions; unused ones are H or OH. Square brackets hold non-standard residues; d marks the D form. Peptide text beside a SMILES is read from it. X55 = CC[C@H](C)[C@H](OC(=O)[C@@H](C)[C@@H](CC)N[*:1])C(=O)[*:2]; X31 = C[C@H](N[*:1])C(=O)C(C)(C)C(=O)[*:2]; NMeY = CN[C@@H](Cc1ccc(O)cc1)C(=O)O; NMeL = CN[C@@H](CC(C)C)C(=O)O; NMeV = CN[C@H](C(=O)O)C(C)C
# output must be one of y for active, n for inactive

Solved cases (4 shown):
Compound | Label class
CCCC(=O)NC(Nc1cc(C)ccn1)(C(=O)OCC)C(F)(F)F (centres undefined) | n
CCCCCC(=O)n1[nH]c(=O)n(-c2ccc(OC)cc2)c1=O | n
O=C1N=C2SC=C(NC(=S)Nc3ccccc3)N2NC12c1ccccc1-c1ccccc12 | n
CN1CCS(=O)(=O)NC(Cc2ccccc2)C(=O)N2CCCC2C1=O (centres undefined) | n

Data request: Assay outcome for CC[C@H](C)[C@@H]1OC(=O)[C@@H](C)[C@@H](CC)NC(=O)[C@H](C)NC(=O)C(C)(C)C(=O)[C@H](C)NC(=O)[C@H](Cc2ccc(OC)cc2)N(C)C(=O)[C@H](C(C)C)N(C)C(=O)CNC(=O)[C@H](CC(C)C)N(C)C(=O)CNC1=O [DOLASTATIN 11] (cyclo(A[X55]G[NMeL]G[NMeV][NMeY](Me)[X31])) : what was it?
Data returned: y

Data request: Assay outcome for C=CCCCCCCC#CCCCCCCCCCC[C@@H]1C(=O)O[C@H](C)[C@@H]1O.CCCCCCCCC#CCCCCCCCCCC[C@@H]1C(=O)O[C@H](C)[C@@H]1O : what was it?
Data returned: n

Data request: Assay outcome for Cn1cc(NC(=O)c2cc(NC(=O)CCCCCCCCCC(=O)Nc3cc(C(=O)Nc4cc(C(=O)NCCC(=N)N)n(C)c4)n(C)c3)cn2C)cc1C(=O)NCCC(=N)N : what was it?
Data returned: n

Data request: Assay outcome for CCN(CC)CCN1C(=O)C(=O)N(c2cccc3ccccc23)C1=O : what was it?
Data returned: n

Data request: Assay outcome for O=c1[nH][nH]c(=O)n1/N=C/c1ccccc1 : what was it?
Data returned: n

###

test system: EKVX; assay: NCI tumour cell line growth inhibition, 48 h
Calls of active or inactive are those of the source. Rule as the data show it: active = GI50 up to about 1.1 µM and inactive = higher.
Assay endpoint: GI50

Consider the reported GI50 for these compounds:
Compound | GI50
CCC1C(=O)C(O)[C@H]2[C@@H]3C(O)CC4=CC(=O)CC[C@]4(C)[C@H]3CC[C@]12C (some centres undefined) | > 50 µM (inactive)
CC1=NN(c2cccc(Cl)c2)C2(SCC(=O)N2c2nc3ccccc3s2)/C1=C\c1ccccc1 (centres undefined) | 36.4 µM (inactive)
COc1ccc(C2CCC(Cl)(OC)CC2C=O)cc1 (centres undefined) | > 100 µM (inactive)
COc1ccc(/C=C2\N=C(SC)N(CN3CCOCC3)C2=O)cc1 | 55.2 µM (inactive)
O=S(=O)(N/C(=N\O)Nc1ccc(Cl)cc1)c1ccc(S(=O)(=O)c2ccccc2)s1 | 18.8 µM (inactive)

GI50 reported for this compound O=C(CC(=O)C1CCOC1=O)C(=O)Nc1ccc(Cl)cc1Cl (centres undefined) : > 100 µM (inactive)

GI50 reported for this compound CCCCN(CCCC)c1ccc(/N=N/c2ccc(S(=O)(=O)O)cc2)cc1 : 39.1 µM (inactive)

GI50 reported for this compound O=c1[nH]c(=O)n(C2CC(O)C(CO)O2)cc1/C=C/Br (centres undefined) : > 100 µM (inactive)

GI50 reported for this compound O=C1C(c2ccc(Cl)cc2)=[N+]([O-])c2ccccc21 : 15.3 µM (inactive)

###

tested on: IGROV-1; assay: NCI tumour cell line growth inhibition, 48 h
Active and inactive are the calls of the source. Rule as the data show it: active = GI50 up to about 1.1 µM and inactive = higher.
# reported GI50; entries follow

Consider the reported GI50 for these compounds:
Compound | GI50
CCOc1ccccc1NC(=O)CCC(=O)OC | > 100 µM (inactive)
Cn1c(=O)[nH]c2sc3c(c2c1=N)CCCC3 | > 75 µM (inactive)
COCCOCOC(C)(C)[C@H](CCO)O[Si](c1ccccc1)(c1ccccc1)C(C)(C)C | 9.14 µM (inactive)
OC1CCCCCCCCCCC1[S+]1CCCC1.O[B-](F)(F)F (centres undefined) | > 100 µM (inactive)
CCCCCCCCCCCCCS(=O)(=O)O | > 100 µM (inactive)

GI50 reported for this compound CCOP(=O)(OCC)OC1C=CC2CCC1C2 (centres undefined) : > 100 µM (inactive)

GI50 reported for this compound CCC1CC2CN3CCc4c([nH]c5c(-c6c(OC)ccc7c8c([nH]c67)[C@]6(C(=O)OC)CC7CC(CC)C6N(CC8)C7)c(O)ccc45)[C@](C(=O)OC)(C2)C13 (some centres undefined) : 14 µM (inactive)

GI50 reported for this compound CC(=O)CC(N)=O : > 100 µM (inactive)

GI50 reported for this compound CC1C2CC(C(S(=O)(=O)O)C2=O)C1(C)C (centres undefined) : > 100 µM (inactive)

GI50 reported for this compound O=[N+]([O-])c1ccc2c(c1)Sc1ccccc1N2CCCCCl : > 100 µM (inactive)

GI50 reported for this compound CC[C@]12C=CCN3CC[C@@]4(c5cc(N=O)c(OC)cc5N(C)[C@H]4[C@@](O)(C(=O)NC(Cc4c[nH]c5ccccc45)C(=O)OC)[C@@H]1O)[C@@H]32 (some centres undefined) : 17.7 µM (inactive)

GI50 reported for this compound Cc1c(NC(=S)Nc2ccc([N+](=O)[O-])cc2)c(=O)n(-c2ccccc2)n1C : > 100 µM (inactive)

GI50 reported for this compound Nc1ccc2c(c1)C(=O)c1ccc(F)cc1-2 : > 100 µM (inactive)

GI50 reported for this compound C[N+](C)(C)CCC(=O)N1C/C(=C\c2ccccc2)C(=O)/C(=C/c2ccccc2)C1 : 5.12 µM (inactive)

###

tested on: SW-620; assay: NCI tumour cell line growth inhibition, 48 h
Activity calls are given as the source filed them. No stated cut-off is given here; in the data, active = GI50 up to about 1.1 µM and inactive = higher.
Assay endpoint: GI50

Consider the reported GI50 for these compounds:
Compound | GI50
O=C1/C(=C/c2ccccc2[N+](=O)[O-])N=C(c2ccccc2)N1c1nc2ccccc2s1 | 34.4 µM (inactive)
CC(C)OC(=O)C1=C2c3ncccc3C(=O)N2[C@@H](Cl)[C@H](Cl)[C@H]1Cl | 34.6 µM (inactive)
CCC1CC2CN3CCc4c([nH]c5c(-c6c(OC)ccc7c8c([nH]c67)[C@]6(C(=O)OC)CC7CC(CC)C6N(CC8)C7)c(O)ccc45)[C@](C(=O)OC)(C2)C13 (stereo partly drawn) | 12.4 µM (inactive)
Cc1ccccc1Nc1cn(CCOc2ccccc2)c(=O)n(CCOc2ccccc2)c1=O | > 100 µM (inactive)

GI50 reported for this compound COCCOCOC(C)(C)[C@H](CCO)O[Si](c1ccccc1)(c1ccccc1)C(C)(C)C : 11.2 µM (inactive)

GI50 reported for this compound O=S(=O)(O)/C(=N\c1cccc(Cc2ccccc2)c1)Nc1cccc(Cc2ccccc2)c1 : 23.7 µM (inactive)

GI50 reported for this compound COc1ccc2c3c1C(=O)CCCC3CO2 (stereo not drawn) : > 100 µM (inactive)

GI50 reported for this compound CCOC(=O)c1c(SC(=O)c2ccc(Cl)cc2)n(-c2ccccc2)c(=S)n(-c2ccccc2)c1=O : > 100 µM (inactive)

###

# reported GI50; entries follow
system: UACC-257; experiment: NCI tumour cell line growth inhibition, 48 h
Activity calls are given as the source filed them. Cut-off read from the data, not from the text of the source: active = GI50 up to about 1.1 µM and inactive = higher.

Compound | Tgt | GI50
CC[C@@]1(C[C@H]2C[C@@]3(C(=O)OC)c4[nH]c5ccccc5c4CCN3C2=S)COC2(CCCCC2)O1 | UACC-257 | 26.5 µM (inactive)

GI50 reported for this compound CCCNCCCC(NC(C)=O)C(=O)NCc1ccccc1 (stereo unspecified) : > 100 µM (inactive)

GI50 reported for this compound CCN(CC)c1ccc(C(=O)c2ccccc2C(=O)O)c(O)c1 : > 100 µM (inactive)

GI50 reported for this compound Cc1oc2nc(N(C)C)n3c(C)nnc3c2c1C : > 100 µM (inactive)

GI50 reported for this compound Clc1ccc(/C=N/Nc2nnc3c4ccccc4c4ncccc4c3n2)cc1 : > 10 µM (inactive)

GI50 reported for this compound C#Cc1cc(Br)c(OC(=O)C(C)(C)C)c(-c2cc(C#C)cc(Br)c2OC(=O)C(C)(C)C)c1 : 36.1 µM (inactive)
